The entries below are paired with their reported IC50.
target.under.test: Falcipain 2 (Plasmodium falciparum)
Sequence (Q9N6S8 whole entry): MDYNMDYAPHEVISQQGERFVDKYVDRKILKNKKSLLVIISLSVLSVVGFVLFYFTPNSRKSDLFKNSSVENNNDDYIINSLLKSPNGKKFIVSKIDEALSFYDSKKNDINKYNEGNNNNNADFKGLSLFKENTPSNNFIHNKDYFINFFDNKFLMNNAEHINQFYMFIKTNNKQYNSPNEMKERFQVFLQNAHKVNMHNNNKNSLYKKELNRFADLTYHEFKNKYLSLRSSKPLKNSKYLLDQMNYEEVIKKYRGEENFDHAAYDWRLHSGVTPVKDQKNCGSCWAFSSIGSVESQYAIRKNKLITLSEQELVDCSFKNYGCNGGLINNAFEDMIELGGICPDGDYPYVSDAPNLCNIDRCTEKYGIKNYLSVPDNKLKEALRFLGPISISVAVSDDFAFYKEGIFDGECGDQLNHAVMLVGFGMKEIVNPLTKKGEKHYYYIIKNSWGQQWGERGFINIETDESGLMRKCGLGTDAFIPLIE
protocol.description: Inhibition of Plasmodium falciparum recombinant falcipain-2
Form entry: value (µM) — number only.

O=C[C@H](CCc1ccccc1)n1cccc(NC(=O)OCc2ccccc2)c1=O    10.9

Attention now turns to another entry.
Q. Using the record for `COC(=O)/C=C/[C@H](CCc1ccccc1)n1cccc(NC(=O)OCc2ccccc2)c1=O` , report its IC50.
A. 19
